Protocol Summary: physchem
Condition Summary: 25 °C, pH 7.2, aqueous buffer
Experimental Readout: solubility

Req: Given the entry CC(=O)N[C@@H](CCCNC(=N)N)C(=O)N[C@H](C(=O)N[C@@H](Cc1ccc(N=C(N)N)cc1)C(=O)NCc1ccc(C(=N)N)cc1)C(C)C [compound 1] , report its measured solubility.
Resp: > 1000 µM

###

Target Of Assay: hPC7 (Homo sapiens)
Sequence (Q16549 142-785): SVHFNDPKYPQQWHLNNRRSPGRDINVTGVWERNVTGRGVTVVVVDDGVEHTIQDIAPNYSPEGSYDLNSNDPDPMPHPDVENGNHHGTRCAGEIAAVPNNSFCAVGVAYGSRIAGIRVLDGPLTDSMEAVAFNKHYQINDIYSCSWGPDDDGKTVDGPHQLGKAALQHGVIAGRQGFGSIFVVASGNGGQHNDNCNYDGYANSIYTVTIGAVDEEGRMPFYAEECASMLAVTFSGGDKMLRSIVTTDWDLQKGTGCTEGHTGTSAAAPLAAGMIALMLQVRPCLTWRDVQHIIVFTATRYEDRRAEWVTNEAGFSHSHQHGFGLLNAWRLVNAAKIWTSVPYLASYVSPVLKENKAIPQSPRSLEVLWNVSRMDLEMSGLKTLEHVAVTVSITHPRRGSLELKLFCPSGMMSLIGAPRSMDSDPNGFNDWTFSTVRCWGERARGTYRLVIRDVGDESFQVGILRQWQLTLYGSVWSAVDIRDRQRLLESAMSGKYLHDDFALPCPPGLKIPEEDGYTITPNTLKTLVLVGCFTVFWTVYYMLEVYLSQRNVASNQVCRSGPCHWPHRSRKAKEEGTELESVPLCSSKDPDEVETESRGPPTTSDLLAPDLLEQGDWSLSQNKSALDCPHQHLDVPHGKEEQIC
Experimental Readout: pIC50
Friendly reminder that pIC50 comes from taking -log10 of the concentration in mol/L.

Req: Given the entry CC(=O)N[C@@H](CCCNC(=N)N)C(=O)N[C@H](C(=O)N[C@@H](Cc1ccc(N=C(N)N)cc1)C(=O)NCc1ccc(C(=N)N)cc1)C(C)C [compound 1] , report its measured pIC50.
Resp: 4.93

###

Protocol Summary: in vivo
Condition Summary: mouse, ip, 3 mg/kg
Experimental Readout: AUC (ng·h/mL)
Field: numeric (ng·h/mL). Do not append units.

Req: Given the entry CC(=O)N[C@@H](CCCNC(=N)N)C(=O)N[C@H](C(=O)N[C@@H](Cc1ccc(N=C(N)N)cc1)C(=O)NCc1ccc(C(=N)N)cc1)C(C)C [compound 1] , report its measured AUC.
Resp: 2600
